This collection of values is drawn from the supplement of paper PMC10567573.

Reported protein stability index values for a set of variants
B1: FAM189A2 (parent)
chain: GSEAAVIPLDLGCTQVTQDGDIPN

Variants of: B1
assay_text: protein stability index of a GFP-peptide fusion (GPS, HEK-293T) (PSI 1-6); higher = more stable;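 further: lentivirally expressed fusions sorted by FACS into six bins by GFP to DsRed ratio, PSI derived from sequencing read proportions per bin multiplied by bin number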
condition_description: c terminus: a fixed tail appended
Simply state the number, no unit and no words.

Recorded protein stability index, per entry:
INSERT INTO results (variant_annotation, assay_readout, observed_result) VALUES
  ('A5Q', 'protein stability index', 5.1),
  ('S2M', 'protein stability index', 4.89),
  ('V6F', 'protein stability index', 4.91),
  ('V16G', 'protein stability index', 5.14),
  ('D21T', 'protein stability index', 4.97);

[Q] // query protein stability index value for entry "L11I"
[A] 5.11

[Q] // query protein stability index value for entry "T14Y"
[A] 5.09

[Q] // query protein stability index value for entry "T17Y"
[A] 4.87
